Hey, just so you know, these numbers are from patent US20230357364A1.

Items are presented alongside their recorded MFI (RBD binding to cell surface).
Target: SARS-CoV-2 RBD (RBD-2) (SARS-CoV-2)
Experiment: flow, HeLa-ACE2, mAb:RBD=4:1

{"binder": "L12.cP09D03 (antibody, V domains shown, human IgG1) VH: QVQLVQSGAEVKKPGASVKVSCKASGYIFSGYYTHWVRQAPGQGLEWMGWISPDSGGTNYAQKFQGRVTMTRDTSITTAYVELSGLRSDDTAVYYCARGPRYSGTYFDYWGQGTLVTVSS VL: QSVLTQPASVSGSPGQSITISCTGTSSDVGGYNYVSWYQQHPGKVPKLMIYDVSNRPSGVSNRFSGSKSGNTASLTISGLQAEDEADYYCSSYTSSSAQLFGGGTKLTVL", "MFI (RBD binding to cell surface)": 5620}
{"binder": "L12.cP07E10 (antibody, V domains shown, human IgG1) VH: EVQLVESGGGLIQPGGSLRLSCAASGFTVSSNYMSWVRQAPGKGLEWVSVIYSGGSTYYADSVKGRFTISRDNSKNTLYLQMNSLRAEDTAVYYCARDPYGYSSIWDGQGGHWGQGTLVTVSS VL: DVVMTQSPSSLSASVGDRVTITCQASQDISNYLNWYQQKPGKAPKLLIYDASNFATGVPSRFSGTGSGTDFTFTISSLQPEDIATYYCQQYDNLPITFGQGTRLEIK", "MFI (RBD binding to cell surface)": 178}
{"binder": "L12.cP09C07 (antibody, V domains shown, human IgG1) VH: QVQLVQSGAEVKKPGASVKVSCKASGYIYSGYFMHWVRQAPGQGLEWMGWISPDSGGANYAQTFQGRVTMTRDTSTTTAHMELSRLRSDDTAVYYCARGPRYSGTHFDYWGQGTLVTVSS VL: QSALTQPASVSGSPGQSLTISCTGTSSDVGGYNYVSWYQQHPDKAPKLMIYDVNNRPSGVSNRFSGSKSGSTASLTISGLQAEDEADYYCSSYAGSSTQVFGGGTKLIVL", "MFI (RBD binding to cell surface)": 4040}
{"binder": "L12.bP11C10 (antibody, V domains shown, human IgG1) VH: QVQLVQSGAEVKKPGASVKVSCKASGYIFSGYYMHWVRQAPGQGLEWMGWISPDSGGTNYAQKFQGRVTMTRDTSITTGYMELSGLRSDDTAVYYCARGPRYSGTYFDYWGQGTLVTISS VL: QSALTQPTSVSGSPGQSITISCTGTSSDVGGYNYVSWYQQHPGKAPKLIIYDVSNRPSGVSNRFSGSKSGNTASLTISGLQAEDEADYYCSSYTVSSTQVFGGGTKLTVL", "MFI (RBD binding to cell surface)": 5170}
